Measurement conditions: in methyl acetate, 318.15 K
Assay endpoint: solubility (mole fraction)
Numbers only.

Ask: Could you tell me which solubility (mole fraction) is on file for CS(=O)(=O)OCCCCOS(C)(=O)=O ?
Result: 0.0107

---

Measurement conditions: in DMSO, 308.15 K
Assay endpoint: solubility (mole fraction)
One number for each entry.

Ask: Could you tell me which solubility (mole fraction) is on file for CS(=O)(=O)OCCCCOS(C)(=O)=O ?
Result: 0.0567

---

Measurement conditions: in ethanol, 318.15 K
Assay endpoint: solubility (mole fraction)
Numbers only.

Ask: Could you tell me which solubility (mole fraction) is on file for CS(=O)(=O)OCCCCOS(C)(=O)=O ?
Result: 0.00046

---

Measurement conditions: in DMSO, 303.15 K
Assay endpoint: solubility (mole fraction)
Answers are plain numbers.

Ask: Could you tell me which solubility (mole fraction) is on file for CS(=O)(=O)OCCCCOS(C)(=O)=O ?
Result: 0.0459

---

Measurement conditions: in methyl acetate, 313.15 K
Assay endpoint: solubility (mole fraction)
Give bare numbers.

Ask: Could you tell me which solubility (mole fraction) is on file for CS(=O)(=O)OCCCCOS(C)(=O)=O ?
Result: 0.008

---

Measurement conditions: in n-propanol, 318.15 K
Assay endpoint: solubility (mole fraction)
Numbers only.

Ask: Could you tell me which solubility (mole fraction) is on file for CS(=O)(=O)OCCCCOS(C)(=O)=O ?
Result: 0.000277

---

Measurement conditions: in DMF, 303.15 K
Assay endpoint: solubility (mole fraction)
Answers are plain numbers.

Ask: Could you tell me which solubility (mole fraction) is on file for CS(=O)(=O)OCCCCOS(C)(=O)=O ?
Result: 0.0397

---

Measurement conditions: in 2-methoxyethanol, 308.15 K
Assay endpoint: solubility (mole fraction)
Give bare numbers.

Ask: Could you tell me which solubility (mole fraction) is on file for CS(=O)(=O)OCCCCOS(C)(=O)=O ?
Result: 0.00438

---

Measurement conditions: in n-butanol, 303.15 K
Assay endpoint: solubility (mole fraction)
Answers are plain numbers.

Ask: Could you tell me which solubility (mole fraction) is on file for CS(=O)(=O)OCCCCOS(C)(=O)=O ?
Result: 6.35e-05

---

Measurement conditions: in 2-ethoxyethanol, 313.15 K
Assay endpoint: solubility (mole fraction)
Give bare numbers.

Ask: Could you tell me which solubility (mole fraction) is on file for CS(=O)(=O)OCCCCOS(C)(=O)=O ?
Result: 0.00259

---

Measurement conditions: in n-propanol, 278.15 K
Assay endpoint: solubility (mole fraction)
Numbers only.

Ask: Could you tell me which solubility (mole fraction) is on file for CS(=O)(=O)OCCCCOS(C)(=O)=O ?
Result: 4.5e-06

---

Measurement conditions: in 2-methoxyethanol, 293.15 K
Assay endpoint: solubility (mole fraction)

Ask: Could you tell me which solubility (mole fraction) is on file for CS(=O)(=O)OCCCCOS(C)(=O)=O ?
Result: 0.00149

---

Measurement conditions: in methyl acetate, 308.15 K
Assay endpoint: solubility (mole fraction)
Answers are plain numbers.

Ask: Could you tell me which solubility (mole fraction) is on file for CS(=O)(=O)OCCCCOS(C)(=O)=O ?
Result: 0.00592

---

Measurement conditions: in methanol, 323.15 K
Assay endpoint: solubility (mole fraction)
Numbers only.

Ask: Could you tell me which solubility (mole fraction) is on file for CS(=O)(=O)OCCCCOS(C)(=O)=O ?
Result: 0.00169
